# System name: recombinant human HPK1 (Homo sapiens (Human))
# Sequence (Q92918 whole entry): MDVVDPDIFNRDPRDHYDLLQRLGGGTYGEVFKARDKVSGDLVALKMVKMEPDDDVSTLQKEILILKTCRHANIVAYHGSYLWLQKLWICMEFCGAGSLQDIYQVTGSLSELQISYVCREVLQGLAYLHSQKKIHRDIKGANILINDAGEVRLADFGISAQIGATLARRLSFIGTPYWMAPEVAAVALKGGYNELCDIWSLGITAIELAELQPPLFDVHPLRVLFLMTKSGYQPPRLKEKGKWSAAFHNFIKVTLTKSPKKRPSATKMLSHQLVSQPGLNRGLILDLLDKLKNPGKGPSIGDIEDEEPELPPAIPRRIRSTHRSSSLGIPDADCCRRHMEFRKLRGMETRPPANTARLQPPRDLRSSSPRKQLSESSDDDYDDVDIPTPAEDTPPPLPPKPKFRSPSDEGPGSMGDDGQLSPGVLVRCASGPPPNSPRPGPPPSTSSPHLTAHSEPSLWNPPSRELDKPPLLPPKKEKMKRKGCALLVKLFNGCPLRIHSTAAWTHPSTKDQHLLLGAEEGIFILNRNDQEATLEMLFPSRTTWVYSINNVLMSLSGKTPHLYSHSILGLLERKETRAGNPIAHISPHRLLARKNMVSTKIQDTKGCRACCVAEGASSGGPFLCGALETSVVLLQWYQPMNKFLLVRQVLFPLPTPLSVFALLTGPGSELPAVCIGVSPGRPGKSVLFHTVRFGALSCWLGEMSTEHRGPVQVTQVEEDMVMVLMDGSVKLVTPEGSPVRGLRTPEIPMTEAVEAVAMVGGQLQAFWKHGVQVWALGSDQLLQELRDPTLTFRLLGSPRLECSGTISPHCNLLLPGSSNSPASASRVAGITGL
# Protocol description: HPK1 kinase assay (ADP-Glo)
# Run parameters: 25 μM ATP, MBP substrate
pIC50: −log10 of the molar value.
Listed compounds paired with reported pIC50

{"columns": ["Smiles text", "pIC50"],
 "data": [
  ["CN(C)c1c(F)c(Cl)c(-c2ccn3nc(NC(=O)[C@@H]4C[C@@H]4F)cc3c2)c2cn[nH]c12", "> 7.00"],
  ["O=C(Nc1cn2cc(-c3c(C(F)(F)F)ccc4[nH]ncc34)ccc2n1)C1CC1", "> 7.00"],
  ["CNC(=O)c1c(F)c(Cl)c(-c2ccc3nc(NC(=O)[C@@H]4C[C@@H]4F)sc3c2)c2cn[nH]c12", "> 7.00"]
]}

Values compiled from patent US11649255B2.
